# subject-of-test: Adrenergic receptor alpha-2 (Rattus norvegicus, UniProt P22086+P19328+P22909)
# method-summary: Compound was tested in vitro for its affinity towards rat Alpha-2 adrenergic receptor
# Format: protein assay
Listing of entries alongside the reported Ki.

molecule	Ki / µM
CS(=O)(=O)c1ccc2c(c1)CNC(CF)C2 (stereo not drawn)	230
FCC1Cc2ccc(Br)cc2CN1 (stereo not drawn)	6.4
N#Cc1ccc2c(c1)CNC(CF)C2 (stereo not drawn)	460
O=[N+]([O-])c1ccc2c(c1)CNC(CF)C2 (stereo not drawn)	76
[N-]=[N+]=Nc1ccc2c(c1)CNC(CF)C2 (stereo not drawn)	47
O=S(=O)(Nc1ccc(Cl)cc1)c1ccc2c(c1)CNC(CF)C2 (stereo not drawn)	160
CNS(=O)(=O)c1ccc2c(c1)CNC(CF)C2 (stereo not drawn)	310
O=S(=O)(NCc1ccccc1)c1ccc2c(c1)CNC(CF)C2 (stereo not drawn)	110
FCC1Cc2ccc(C(F)(F)F)cc2CN1 (stereo not drawn)	41
FCC1Cc2ccccc2CN1 (stereo not drawn)	3.8
FCC1Cc2ccc(N=C=S)cc2CN1 (stereo not drawn)	22
NS(=O)(=O)c1ccc2c(c1)CNC(CF)C2 (stereo not drawn)	680
FCC1Cc2ccc(I)cc2CN1 (stereo not drawn)	7.1

Data origin, for the record: ChEMBL document CHEMBL1132375
